Each item that follows carries a reported INHIBITION.
- System: Plasmodium berghei
- ASSAY: Screen against P. berghei liver stage (PbLuc), transformed with Luciferase, at 2uM
- Type: functional, HepG2
- CONDITION INFO: tested at 2 uM
In all, about 68,000 compounds went through this assay and about 2,700 (4%) showed an effect of 50% or more. The sample as a whole holds a higher share of strong results than the screen did.

| COMPOUND | TARGET | INHIBITION (%) |
| --- | --- | --- |
| O=C(c1cc(C2CC2)no1)N1C[C@@H]2CC[C@H]1CN(Cc1ccccn1)C2 | Plasmodium berghei | -62.92 |
| Cn1ccc(NC(=O)CN2C[C@@H]3CC[C@H]2CN(Cc2ccccn2)C3)n1 | Plasmodium berghei | 52.98 |
| Cc1ccc2c(n1)N(C)CCN(Cc1ccco1)C2 | Plasmodium berghei | 29.89 |
| O=C(CC1COCCN1)N1CCC(N2CCc3ccccc3C2)CC1 (stereo unspecified) | Plasmodium berghei | -3.38 |
| O=C(O)CN1CCC2(CCc3ccccc32)CC1 | Plasmodium berghei | -2.19 |
| CSc1cccc(CN(C)C(=O)Nc2nc(C)n(C)n2)c1 | Plasmodium berghei | 4.12 |
| O=C(CN1C[C@@H]2CC[C@H]1CN(Cc1ccccn1)C2)Nc1ccccc1 | Plasmodium berghei | -16.18 |
| O=C(CCOCC(F)(F)F)N1CCCC(n2ccnc2)C1 (stereo unspecified) | Plasmodium berghei | 2.21 |
| O=C(CN1C(=O)CCNC1=O)N1CCC2(CCc3ccccc32)CC1 | Plasmodium berghei | 12.3 |
| CC1(C)CC1(C(=O)N1CC(c2cccnc2)C1)c1ccc(F)cc1 (stereo unspecified) | Plasmodium berghei | 41.05 |
| Cc1nnsc1CN1C[C@@H]2CC[C@H]1CN(Cc1ccccn1)C2 | Plasmodium berghei | -17.17 |
